TARGET ENTITY: GRK5 (Bos taurus)
Construct: when using full-length kinases as the receptor[37] instead of isolated kinase domains; made in house
Sequence (P43249 whole entry, the tested form may be a part): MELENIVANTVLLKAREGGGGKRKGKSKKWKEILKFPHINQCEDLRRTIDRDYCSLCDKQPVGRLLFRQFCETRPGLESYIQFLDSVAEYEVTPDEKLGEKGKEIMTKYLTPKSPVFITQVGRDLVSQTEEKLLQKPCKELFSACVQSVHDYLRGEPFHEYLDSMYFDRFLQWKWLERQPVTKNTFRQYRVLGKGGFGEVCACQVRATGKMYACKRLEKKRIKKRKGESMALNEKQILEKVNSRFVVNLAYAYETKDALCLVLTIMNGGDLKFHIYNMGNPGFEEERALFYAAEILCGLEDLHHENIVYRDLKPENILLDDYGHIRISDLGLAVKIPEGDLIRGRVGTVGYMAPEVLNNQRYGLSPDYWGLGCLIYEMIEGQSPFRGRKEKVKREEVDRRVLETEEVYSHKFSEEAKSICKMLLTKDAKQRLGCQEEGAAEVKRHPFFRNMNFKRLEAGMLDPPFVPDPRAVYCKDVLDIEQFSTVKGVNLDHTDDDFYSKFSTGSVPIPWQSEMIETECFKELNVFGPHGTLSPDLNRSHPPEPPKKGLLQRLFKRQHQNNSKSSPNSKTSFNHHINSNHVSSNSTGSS
ASSAY OVERVIEW: In vitro phosphorylation assay (tubulin, 5 μM ATP), GRK5
Format: biochemical, bovine
APPLIED CONDITIONS: read-out: GRK5 log IC50 (converted)
Label key: label 1 means IC50 under 30 µM; label 0 means IC50 of 30 µM or more.

API: query returns whether the compound falls strictly under 30 µM in IC50. Query: Fc1cccc(COc2ccc(Nc3ncnc4cc(-c5ccc[nH]5)sc34)cc2Cl)c1 [GW693881A] label 0

What do you get for CNC(=O)c1ncccc1Nc1nc(Nc2cc3c(cc2OC)CCCN3C(=O)CN(C)C)nc2[nH]ccc12 [GSK2220400A] ? label 1

Check CCCN1CCC(Oc2cc(Nc3nc(Nc4cccc(F)c4C(N)=O)c4cc[nH]c4n3)c(OC)cc2Cl)CC1 [GSK1713088A] too. label 1

New cases:
State whether 30 µM exceeds IC50 recorded for CC(C)COC(=O)c1ccc2c(c1)/C(=C/Nc1ccc(S(N)(=O)=O)cc1)C(=O)N2 [GW416981X] . label 1

What would you report for CCn1c(-c2nonc2N)nc2c(C#CC(C)(C)O)nc(O[C@@H](CN)c3ccccc3)cc21 [GSK1007102B] ? label 1

What about this compound? CN(c1ccc(NC(=O)Nc2ccc(OC(F)(F)F)cc2)cc1)c1ccnc(Nc2cccc(S(N)(=O)=O)c2)n1 [GW806742X] label 0

Please answer likewise for COc1cc2c(cc1Nc1nc(Nc3ccsc3C(N)=O)c3cc[nH]c3n1)N(C(=O)CN(C)C)CCC2 [GSK2110236A] label 1

Now consider CC1=C(C(=O)Nc2ccc3[nH]ncc3c2)C(c2ccc(F)cc2)NC(c2ccc(C(F)(F)F)nc2)=N1 (centres unmarked) [GSK317354A] . label 0

These data points were gathered from paper PMC4301037.
